Provenance of the data: paper PMC3205354

Molecular target: FAPP1 PH domain (Homo sapiens)
Assay: SPR equilibrium binding to lipid vesicles
Conditions: read-out: Kd (SPR); POPC/POPE/PI (75:20:5) liposomes; 10 mM HEPES (pH 7.4), 160 mM KCl, 25°C

{"compound": "CCCCCCCCCCCCCCCC(=O)OC[C@H](COP(=O)(O)O[C@H]1[C@H](O)[C@@H](O)[C@H](OP(=O)(O)O)[C@@H](O)[C@H]1O)OC(=O)CCCCCCCCCCCCCCC [C16-PtdIns(4)P]", "Kd": "460 nM"}

###

Molecular target: FAPP1 PH domain (Homo sapiens, UniProt Q9HB20)
Sequence (Q9HB20 1-99): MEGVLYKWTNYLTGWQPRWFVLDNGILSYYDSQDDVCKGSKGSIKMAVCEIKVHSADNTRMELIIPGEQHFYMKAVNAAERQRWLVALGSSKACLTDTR
Test: NMR 1H,15N HSQC titration
Format: binding
Conditions: read-out: Kd (NMR); 25 mM Bis-Tris, 150 mM NaCl, pH 6.5, 25°C
pKd: −log10 of the molar value.

{"molecule": "O=P(O)(O)OC1[C@@H](O)[C@@H](O)C(OP(=O)(O)O)[C@H](O)[C@H]1O (stereo partly shown) [Ins(1,4)P2, inositol 1,4-bisphosphate]", "experimentalSystem": "FAPP1 PH domain (Homo sapiens, UniProt Q9HB20)", "pKd": 1.70}
